These data points were gathered from paper PMC3157396.

- targetDesc: T1, PDZ2 domain of human DLG1 with the point mutation Q340P (human, UniProt Q12959 315-410, Q340P)
- T1 construct: human DLG1 PDZ2 domain, residues 315-410, Q340P; also called PDZ2 Q340P; PDZ2-Q340P; source: E. coli BL21 (DE3), purified
- T1 sequence (looked up): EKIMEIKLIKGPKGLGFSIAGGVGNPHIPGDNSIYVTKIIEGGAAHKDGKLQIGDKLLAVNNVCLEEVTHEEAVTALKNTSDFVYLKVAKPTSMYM
- testDescription: ITC; ITC200, 25°C, 50 mM HEPES pH 7.5, 100 mM NaCl; PDZ domain (400 µM) injected 20 times in 2 µl aliquots into 40 µM GST-tagged APC-C11 or APC-C4; single site binding model
- statedConditions: both partners purified
valueKind: Kd (µM)
Numeric only. Scale: µM

Please give the documented Kd of RHSGSYLVTSV (human Adenomatous Polyposis Coli (APC), C-terminal 11 residues, 2833-2843 of the 2,843-residue protein; cloned into pGEX4T1; also called GST-APC-C11; APC-C11; not shown: GST, N-terminal, kept) [GST-tagged C-terminal 11 residues of human Adenomatous Polyposis Coli (APC), residues 2833–2843]
9.8
